Tested on: Bacillus subtilis
Protocol details: Antibacterial activity against Bacillus subtilis by two fold serial dilution method
Format: functional
Measured quantity: MIC (µg/mL)

In [3]: df
Out[3]:
                               query_smiles  measured_quantity  value_operator  observed
0  COc1ccc2cc3[n+](cc2c1OCCN(CCn1cncn1)Cc1ccc(Cl)c(Cl)c1)CCc1cc2c(cc1-3)OCO2.[Cl-]                MIC               =         8
1  COc1ccc2cc3[n+](cc2c1OC)CCc1cc2c(cc1-3)OCO2                MIC               >       512
2  O=C(N[C@H](CO)[C@H](O)c1ccc([N+](=O)[O-])cc1)C(Cl)Cl                MIC               =        32
3           Fc1ccc(CN(CCBr)CCn2cncn2)c(F)c1                MIC               =       256
4  COc1ccc2cc3[n+](cc2c1OCCN(CCn1cncn1)Cc1ccc(F)cc1F)CCc1cc2c(cc1-3)OCO2.[Cl-]                MIC               =         8
5  COc1ccc2cc3[n+](cc2c1OCCN(CCn1cncn1)Cc1cccc(Cl)c1)CCc1cc2c(cc1-3)OCO2.[Cl-]                MIC               =        16
6           Clc1ccc(CN(CCBr)CCn2cncn2)cc1Cl                MIC               =       256
7  COc1ccc2cc3[n+](cc2c1OCCN(CCn1cncn1)Cc1ccc(Cl)cc1)CCc1cc2c(cc1-3)OCO2.[Cl-]                MIC               =         8
8         Clc1ccc(CN(CCBr)CCn2cncn2)c(Cl)c1                MIC               =       256
